Exercise: state measured TGI for each of the molecules provided.
# Test system: EKVX NSCLC
# test protocol: NCI tumour cell line growth inhibition, 48 h

Task item: What TGI value was documented for this molecule, CCOC(=O)NC(=O)c1cn(C2CCCCC2)c(=O)[nH]c1=O ?
Reply: > 100 µM

Task item: For COC(c1ccc(C(C)(C)C)cc1)(c1ccc(C(C)(C)C)cc1)c1ccc(C(C)(C)C)cc1 then?
Reply: > 100 µM

Task item: Entry to check: CC1(C)C2CC(=O)C1(C)C(O)C2Br (stereo not drawn)
Reply: > 100 µM

Task item: Record: CCOC(CNCCC(=O)OC)OCC
Reply: > 10 µM

Task item: Further, for CC(C)=C1CCC(CN(C)C)C1=O (stereo not drawn) ?
Reply: 31.9 µM

Task item: Same for Cc1ccc(OCCn2cc(Nc3ccccc3)c(=O)n(CCOc3ccc(C)cc3)c2=O)cc1
Reply: > 100 µM

Task item: Try CC(=O)OCC1OC(n2cc(I)c(=O)[nH]c2=O)C(OC(C)=O)C(OC(C)=O)C1OC(C)=O (stereo not drawn) next.
Reply: > 100 µM

Task item: Okay, and O=C(O)C(SC1=NNC2(C(=O)N1)c1ccccc1-c1ccccc12)SC1=NNC2(C(=O)N1)c1ccccc1-c1ccccc12 ?
Reply: > 10 µM

Task item: Moving on to Cc1ccccc1C1=[N+]([O-])c2ccc(Cl)cc2C1=O
Reply: 25 µM

Task item: // query: COc1cc(/C=C2\[C@H]3c4c(c(OC)c(C)c(OC)c4OC)CC(C(=O)N2Cc2ccccc2)N3C)c(OC)c(C)c1OC
Reply: 67.6 µM

Task item: Subsequent entry: CCOC(=O)C(Cl)(Cl)/S(=N\S(=O)(=O)c1ccccc1)NC(=O)c1ccccc1 (stereo not drawn)
Reply: > 100 µM

Task item: Continue with CNc1ncnc2c1cnn2COCC(O)CO (stereo not drawn)
Reply: > 100 µM

Task item: Also need Cn1ccnc1C(O)(c1nccn1C)c1nccn1C , thanks.
Reply: > 100 µM
